measurement-target: Polyketide synthase Pks13 (Mycobacterium tuberculosis (strain ATCC 25618 / H37Rv)) (UniProt I6X8D2)
Sequence (I6X8D2 whole entry): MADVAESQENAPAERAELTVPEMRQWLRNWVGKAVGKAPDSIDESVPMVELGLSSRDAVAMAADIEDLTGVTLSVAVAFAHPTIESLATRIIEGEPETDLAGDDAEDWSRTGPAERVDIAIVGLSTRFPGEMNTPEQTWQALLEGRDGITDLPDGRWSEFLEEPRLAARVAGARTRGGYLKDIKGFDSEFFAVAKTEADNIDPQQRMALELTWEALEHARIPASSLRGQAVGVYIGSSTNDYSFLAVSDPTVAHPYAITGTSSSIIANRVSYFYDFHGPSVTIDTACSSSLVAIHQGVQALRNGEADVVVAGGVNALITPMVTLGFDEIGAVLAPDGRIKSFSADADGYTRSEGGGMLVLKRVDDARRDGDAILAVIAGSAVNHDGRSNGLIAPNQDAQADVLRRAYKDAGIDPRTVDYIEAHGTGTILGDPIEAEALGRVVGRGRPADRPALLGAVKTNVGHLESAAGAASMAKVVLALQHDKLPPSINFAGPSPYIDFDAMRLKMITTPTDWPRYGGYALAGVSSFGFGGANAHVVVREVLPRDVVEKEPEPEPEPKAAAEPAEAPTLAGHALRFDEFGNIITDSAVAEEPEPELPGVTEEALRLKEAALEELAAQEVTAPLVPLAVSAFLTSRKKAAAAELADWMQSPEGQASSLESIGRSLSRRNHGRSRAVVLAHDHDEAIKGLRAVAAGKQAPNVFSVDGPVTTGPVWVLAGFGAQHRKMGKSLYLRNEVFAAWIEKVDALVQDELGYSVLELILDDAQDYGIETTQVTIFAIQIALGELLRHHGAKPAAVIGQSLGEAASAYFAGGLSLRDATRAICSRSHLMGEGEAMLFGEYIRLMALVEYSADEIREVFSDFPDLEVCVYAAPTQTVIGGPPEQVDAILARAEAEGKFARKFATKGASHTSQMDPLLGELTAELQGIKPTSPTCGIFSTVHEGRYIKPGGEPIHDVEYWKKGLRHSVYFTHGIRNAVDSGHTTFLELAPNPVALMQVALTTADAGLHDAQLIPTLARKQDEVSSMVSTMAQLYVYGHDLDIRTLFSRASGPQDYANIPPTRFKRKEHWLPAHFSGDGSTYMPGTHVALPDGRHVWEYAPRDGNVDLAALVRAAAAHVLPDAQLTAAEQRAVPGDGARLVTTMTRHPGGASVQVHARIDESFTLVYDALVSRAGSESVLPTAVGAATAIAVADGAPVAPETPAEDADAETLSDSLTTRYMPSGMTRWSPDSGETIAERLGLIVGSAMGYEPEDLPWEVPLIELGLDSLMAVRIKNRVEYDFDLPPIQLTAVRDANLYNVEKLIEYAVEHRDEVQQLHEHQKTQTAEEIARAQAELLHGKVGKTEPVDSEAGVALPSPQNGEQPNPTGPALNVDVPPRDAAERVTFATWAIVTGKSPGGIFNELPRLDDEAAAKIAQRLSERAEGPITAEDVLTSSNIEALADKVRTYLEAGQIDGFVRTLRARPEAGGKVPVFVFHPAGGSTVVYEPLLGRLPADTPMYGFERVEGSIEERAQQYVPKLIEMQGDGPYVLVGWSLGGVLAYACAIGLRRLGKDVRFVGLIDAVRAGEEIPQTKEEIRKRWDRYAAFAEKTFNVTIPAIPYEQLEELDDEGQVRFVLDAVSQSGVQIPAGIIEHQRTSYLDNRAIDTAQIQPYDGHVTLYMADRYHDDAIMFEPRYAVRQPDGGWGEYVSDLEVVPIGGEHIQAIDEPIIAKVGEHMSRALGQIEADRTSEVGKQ
assay-notes: Mycobacterium tuberculosis Polyketide synthase 13 Thioesterase (PKS13)
Type: functional
Parameters: scale not given: in the data most compounds retested in dose-response had high values
experimental-conditions: 30 µM
The whole screen tested about 67,000 compounds, of which about 300 (0.45%) showed an effect of 50% or more. The entries come from a sample that favours strong results as a whole.
Attribute: Percent Effect

{"columns": ["compound", "u", "Percent Effect"],
 "data": [
  ["Cc1cccc(CN2C[C@@H]3CCCO[C@@H]3[C@H](Nc3ccccn3)C2)n1", "%", -13.2],
  ["CC1(NC(=O)Cc2csc(C(C)(C)C)n2)CCS(=O)(=O)C1 (configuration not stated)", "%", -0.313],
  ["CN(C)C(=O)COCC1C[C@@H]2OCCN(Cc3ccco3)[C@H]2C1 (some centres not stated)", "%", -27.3],
  ["Cc1ccccc1CN1CC[C@H]2C[C@H](C(=O)N(C)C)O[C@H]2C1", "%", -13.3],
  ["O=C(c1ccco1)N1C[C@H]2CN(Cc3cccc(F)c3)C(=O)[C@H]2C1", "%", -4.13],
  ["CSCC(=O)N1C[C@H]2CC[C@@H]1CN(C1Cc3ccccc3C1)C2", "%", -8.9],
  ["CC(C)NC(=O)NC(C)c1nc(-c2ccccc2)cs1 (configuration not stated)", "%", 0.666],
  ["O=C(c1ccco1)N1CCO[C@@H]2CN(c3ncc(F)cn3)CC[C@@H]2C1", "%", -32.7],
  ["Cc1nnc2n1CCN(C(=O)c1cc3cc(F)ccc3[nH]1)C2", "%", -0.338],
  ["O=C(C1CC(=O)N(c2ccccc2Br)C1)N1CCCCCC1 (configuration not stated)", "%", -11.4],
  ["COCC(=O)NC[C@H]1CC[C@H](c2nnc(-c3cccnc3)o2)CC1", "%", 5.07],
  ["O=C(CC1CCCC1)N1C[C@H](Oc2cccnc2)[C@H]2OCCC[C@H]21", "%", -7.32],
  ["Fc1cnc(N2CCO[C@H]3CN(CC4CCCCC4)C[C@H]32)nc1", "%", -51],
  ["CCOC(=O)N1CCN(C(=O)C2CC(=O)N(c3ccccc3Br)C2)CC1 (configuration not stated)", "%", 50.9],
  ["CN(C)C(=O)CO[C@@H]1CC[C@H]2[C@H]1OCCN2c1ncc(F)cn1", "%", -1.97],
  ["CC(C)CN1CCN(Cc2nc3c(s2)CCCC3)[C@H]2CS(=O)(=O)C[C@H]21", "%", 3.91],
  ["O=C(NC[C@H]1C[C@@H]2CN(C(=O)c3ccno3)C[C@@H]2O1)C1CCC1", "%", -26.6],
  ["CC1(NC(=O)Cc2csc(NC(=O)c3ccccc3)n2)CCS(=O)(=O)C1 (configuration not stated)", "%", 51.1],
  ["CC1(NC(=O)Cc2csc(-c3ccccc3Cl)n2)CCS(=O)(=O)C1 (configuration not stated)", "%", -7.78],
  ["COCCN1C[C@@H]2CCCO[C@@H]2[C@H](N(C)Cc2ccco2)C1", "%", -24.6],
  ["N#Cc1cnn(-c2ccc(C(=O)N(C3CCCCC3)C3CC3)cc2)c1N", "%", -18],
  ["COCCCN1C(=O)CC[C@H]2CN(Cc3ccc4occc4c3)CC[C@H]21", "%", -8.86]
]}

Data provenance: ChEMBL document CHEMBL3988442
